# Test target: Nav 1.7 (Homo sapiens (Human), UniProt Q15858)
# Sequence (Q15858 whole entry): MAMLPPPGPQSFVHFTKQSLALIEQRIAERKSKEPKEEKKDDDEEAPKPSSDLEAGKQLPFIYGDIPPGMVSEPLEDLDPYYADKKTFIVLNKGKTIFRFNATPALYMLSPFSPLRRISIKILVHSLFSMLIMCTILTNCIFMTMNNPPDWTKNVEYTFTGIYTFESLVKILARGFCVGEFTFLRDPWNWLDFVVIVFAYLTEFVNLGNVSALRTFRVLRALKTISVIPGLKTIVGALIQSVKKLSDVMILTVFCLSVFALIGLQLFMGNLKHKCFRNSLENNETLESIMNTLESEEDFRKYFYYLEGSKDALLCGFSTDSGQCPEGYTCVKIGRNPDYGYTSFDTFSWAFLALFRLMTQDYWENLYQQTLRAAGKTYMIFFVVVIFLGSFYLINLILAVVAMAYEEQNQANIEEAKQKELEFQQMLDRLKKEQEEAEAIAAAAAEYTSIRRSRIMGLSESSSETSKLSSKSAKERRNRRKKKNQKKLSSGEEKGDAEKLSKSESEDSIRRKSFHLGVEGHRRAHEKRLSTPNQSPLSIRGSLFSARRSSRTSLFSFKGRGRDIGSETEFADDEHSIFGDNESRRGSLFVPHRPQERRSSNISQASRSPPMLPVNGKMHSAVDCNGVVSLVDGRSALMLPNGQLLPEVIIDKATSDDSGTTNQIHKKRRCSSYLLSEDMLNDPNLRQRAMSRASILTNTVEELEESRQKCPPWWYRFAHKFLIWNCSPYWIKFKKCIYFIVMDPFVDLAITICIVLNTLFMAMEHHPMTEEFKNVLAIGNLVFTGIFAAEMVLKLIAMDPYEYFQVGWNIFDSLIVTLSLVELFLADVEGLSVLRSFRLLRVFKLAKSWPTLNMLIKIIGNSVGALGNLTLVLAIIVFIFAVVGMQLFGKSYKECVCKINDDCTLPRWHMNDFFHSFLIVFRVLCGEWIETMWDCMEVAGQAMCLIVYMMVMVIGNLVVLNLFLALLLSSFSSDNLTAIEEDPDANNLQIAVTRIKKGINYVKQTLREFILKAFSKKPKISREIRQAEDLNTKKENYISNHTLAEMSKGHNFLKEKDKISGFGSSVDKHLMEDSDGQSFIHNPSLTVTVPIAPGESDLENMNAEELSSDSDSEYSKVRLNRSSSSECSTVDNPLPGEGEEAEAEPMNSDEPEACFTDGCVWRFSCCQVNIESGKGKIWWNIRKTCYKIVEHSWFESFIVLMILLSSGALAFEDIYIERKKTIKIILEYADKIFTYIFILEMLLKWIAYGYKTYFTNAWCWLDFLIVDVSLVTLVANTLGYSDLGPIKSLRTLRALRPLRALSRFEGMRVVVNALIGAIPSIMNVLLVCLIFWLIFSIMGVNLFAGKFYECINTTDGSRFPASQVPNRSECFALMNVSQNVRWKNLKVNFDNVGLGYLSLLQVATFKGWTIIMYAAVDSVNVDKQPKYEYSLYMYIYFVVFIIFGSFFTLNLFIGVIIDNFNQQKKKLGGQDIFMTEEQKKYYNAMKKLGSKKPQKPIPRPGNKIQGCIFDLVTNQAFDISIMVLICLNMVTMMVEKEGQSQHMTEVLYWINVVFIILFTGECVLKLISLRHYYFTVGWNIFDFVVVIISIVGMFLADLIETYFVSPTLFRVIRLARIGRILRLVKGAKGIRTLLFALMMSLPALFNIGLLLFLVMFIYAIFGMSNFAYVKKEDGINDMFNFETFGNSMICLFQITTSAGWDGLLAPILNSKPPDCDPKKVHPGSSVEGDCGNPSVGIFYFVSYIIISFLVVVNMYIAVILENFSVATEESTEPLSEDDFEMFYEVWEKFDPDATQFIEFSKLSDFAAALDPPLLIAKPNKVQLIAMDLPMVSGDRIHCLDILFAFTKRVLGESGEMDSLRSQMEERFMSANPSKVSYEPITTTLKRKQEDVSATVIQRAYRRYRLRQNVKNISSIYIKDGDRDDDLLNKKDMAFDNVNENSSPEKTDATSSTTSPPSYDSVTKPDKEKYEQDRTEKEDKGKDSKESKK
# Assay procedure: in-vitro Nav 1.7 PX (IC50)
# Type: cell-based
Readout: IC50 (nM)
# unit: nM | format: bare number

Prompt line: Dear colleague, please send me the reported IC50 for COc1cc(-c2cc(F)cnc2OC)c(C)cc1-n1c(=O)ccc2cc(S(=O)(=O)Nc3ccon3)ccc21 (atropisomer, axis not shown; (P)) [Example 426] when you can.
Response line: 63

Prompt line: Dear colleague, please send me the reported IC50 for COc1cc(-c2cccc(F)c2)c(Cl)cc1-n1c(=O)ccc2cc(S(=O)(=O)Nc3cccnn3)ccc21 (atropisomer, axis not shown; (P)) [Example 467] when you can.
Response line: 13

Prompt line: Dear colleague, please send me the reported IC50 for COc1cc(-c2ccc(C)c(F)c2)ccc1-n1c(=O)ccc2cc(S(=O)(=O)Nc3ccon3)ccc21 (atropisomer, axis not shown; (P)) when you can.
Response line: 40

Prompt line: Dear colleague, please send me the reported IC50 for `COc1ccc(-c2cnn(C)c2)cc1-n1c(=O)ccc2cc(S(=O)(=O)Nc3ccon3)ccc21` when you can.
Response line: 27100

Prompt line: Dear colleague, please send me the reported IC50 for COc1cc(-c2cccc(C)c2)ccc1-n1c(=O)ccc2cc(S(=O)(=O)Nc3ccon3)ccc21 (atropisomer, axis not shown; (P)) [Example 584] when you can.
Response line: 13

Prompt line: Dear colleague, please send me the reported IC50 for COc1cc(-c2cc(F)cnc2OC)ccc1-n1c(=O)ccc2cc(S(=O)(=O)Nc3ccon3)ccc21 (atropisomer, axis not shown; (P)) when you can.
Response line: 102
